procedureSummary: A549 lung cancer cell viability effects, profiling panel, resazurin fluorescence, 24 h, PK04 Diversity Set (AID 1171); further: test concentration not given here
details: higher = more signal, called active from +8 up or from −8 down

- chemicalStructure: "Cc1ccc(S[C@]2(C(=O)O)CC(=O)N(C3Cc4ccccc4C3)[C@@H]2c2ccc(CO)cc2I)cc1"
  z-score: 0.477
- chemicalStructure: "COCCOC(=O)N1C(=O)[C@@]2(c3cc(C#CCNC(N)=O)ccc31)[C@H](C(=O)N1CCc3cc(OC)c(OC)cc3C1)[C@H]1C(=O)O[C@H](c3ccccc3)[C@H](c3ccccc3)N1[C@@H]2c1ccc(OCCO)cc1"
  z-score: 0.0245
- chemicalStructure: "COc1ccc([Si](C)(C)[C@@H]2[C@@H](CC(=O)N(CCO)Cc3ccccc3)O[C@]3(C(=O)N(C)c4ccccc43)[C@H]2C)cc1"
  z-score: -1.78

====

procedureSummary: small-molecule binders of probe aInhba, primary screen, biochemical, small-molecule microarray, 635/667 nm fluorescence (AID 1148);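 further: score merges 667nm spot fluorescence with signal-to-noise for antibody binding to printed compounds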
details: higher = more signal

- molecule: "COc1cc(C(O)C2C=CC3C(=O)N(c4ccccc4)C(=O)C3N2Nc2ccc(C#N)cc2)cc(OC)c1OC (stereo not drawn)"
  composite z-score: 0.201
- molecule: "C=C(C(=O)CC[C@H](OC(C)=O)c1ccc(OCCO)cc1)C(C)C"
  composite z-score: -0.125
- molecule: "O=C1OCCC/C=C\\[C@H]2OC34C=CCN(Cn5nnc6ccccc65)C(=O)[C@H]3N(CCCCCO)C(=O)[C@@H]4C12 (stereo partly drawn)"
  composite z-score: -0.0762
- molecule: "COCCOC(=O)N1C(=O)[C@@]2(c3cc(C#CCNC(N)=O)ccc31)[C@H](c1ccc(OCCO)cc1)N1[C@H](c3ccccc3)[C@H](c3ccccc3)OC(=O)[C@H]1[C@@H]2C(=O)N1CCc2cc(OC)c(OC)cc2C1"
  composite z-score: -0.0136
- molecule: "O=C1OCCC=C[C@H]2OC34C=CCN(Cc5ccccc5)C(=O)[C@H]3N(CCCO)C(=O)[C@@H]4C12 (stereo partly drawn)"
  composite z-score: -0.128
- molecule: "COCCOC(=O)N1C(=O)[C@@]2(c3cc(C#CCC(C(=O)OC)C(=O)OC)ccc31)[C@H](c1ccc(O)cc1)N1[C@H](c3ccccc3)[C@H](c3ccccc3)OC(=O)[C@H]1[C@@H]2C(N)=O"
  composite z-score: 0.215
- molecule: "COC(=O)[C@@]1(Cc2ccccc2)N=C(c2ccc(OCCCO)cc2)O[C@H]1c1ccccc1N=[N+]=[N-]"
  composite z-score: 0.25
- molecule: "COCC(=C=CC[C@H](O)c1ccc(OCCO)cc1)C[C@H](O)c1cc(Cl)cc(Cl)c1O"
  composite z-score: 0.0849
- molecule: "[N-]=[N+]=Nc1ccccc1C[C@]1(C(=O)NCCN2CCOCC2)N=C(c2ccc(OCCCO)cc2)O[C@H]1c1ccccc1"
  composite z-score: 0.101
- molecule: "Cc1ccccc1C(O)C1C=CC2C(=O)N(C)C(=O)C2N1N1CCCCC1 (stereo not drawn)"
  composite z-score: 0.462
- molecule: "CCOC(=O)C1=CC[C@@H](c2ccccc2Cl)N(S(=O)(=O)c2ccc(C)cc2)C1"
  composite z-score: 0.0569
- molecule: "COC(=O)[C@@]1(Cc2ccc(OC)cc2)[C@H]2c3cc(C(=O)N4CCCC4)n(CCc4c[nH]c5cc(F)ccc45)c3C[C@H]2CN1C(=O)c1ccccc1"
  composite z-score: 0.636
- molecule: "CC(C)CNC(=O)[C@@]1(c2ccc([N+](=O)[O-])cc2)CC(=O)N(CC23CC4CC(CC(C4)C2)C3)[C@@H]1c1ccc(CO)cc1I"
  composite z-score: 0.11
- molecule: "O=C1N(CCS(=O)(=O)c2ccccc2)Cc2ccccc2[C@H]2OC(c3ccc(OCCCO)cc3)=N[C@@]12CCS(=O)(=O)c1ccccc1"
  composite z-score: 0.0831
- molecule: "COc1ccc(C#Cc2ccc3c(c2)[C@]2(C(=O)N3)[C@H](C(=O)NC[C@H](O)c3ccccc3)[C@H]3C(=O)O[C@H](c4ccccc4)[C@H](c4ccccc4)N3[C@@H]2c2ccc(OCCO)cc2)cc1"
  composite z-score: -0.0173
- molecule: "COc1ccc(C(O)C2C=CC3C(=O)N(C)C(=O)C3N2Nc2ccccc2)cc1OCc1ccccc1 (stereo not drawn)"
  composite z-score: 0.0528
- molecule: "COC(=O)C[C@@H]1C[C@H](C)[C@]2(O1)C(=O)N(Cc1ccccc1)c1ccc(NC(C)=O)cc12"
  composite z-score: -0.128
- molecule: "CCOC(=O)C[C@H]1[C@H](OC(=O)c2ccc(-c3ccccc3)cc2)[C@@H](NC(=O)c2ccc(-c3ccccc3)cc2)c2cc(OCCCO)ccc2N1C(=O)Cc1ccc(OC)cc1"
  composite z-score: 0.0301

====

targetOfAssay: Concanavalin-A (Canavalia ensiformis)
procedureSummary: ConA small-molecule binders, primary screen, artefact control for SMM control protein annotation, biochemical, small-molecule microarray, Alexa647 label, 635 nm (AID 1127);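 further: z combines 667 nm emission intensity with signal-to-noise across three replicate slides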
details: ConA-A647 binding fluorescence, higher = more signal
readoutName: composite z-score

- compound: "CC(C)c1ccc(NN2C(C(O)c3c(F)cccc3Cl)C=CC3C(=O)N(c4ccccc4)C(=O)C32)cc1 (stereo not drawn)"
  targetOfAssay: "Concanavalin-A (Canavalia ensiformis)"
  readoutName: "composite z-score"
  reported: 1.11
- compound: "O=C(CS)NCCCCCCNC(=O)[C@H]1C[C@H]2C(=O)NCC(=O)N2[C@H]1c1ccc(O)cc1"
  targetOfAssay: "Concanavalin-A (Canavalia ensiformis)"
  readoutName: "composite z-score"
  reported: 0.336
- compound: "CC(C)C[C@@H]1NC(=O)[C@H]2C[C@@H](C(=O)NCCCCCNC(=O)CS)[C@@H](c3cccc(OCCO)c3)N2C1=O"
  targetOfAssay: "Concanavalin-A (Canavalia ensiformis)"
  readoutName: "composite z-score"
  reported: 1

====

targetOfAssay: Concanavalin-A (Canavalia ensiformis) (UniProt P02866)
Sequence (P02866 whole entry, looked up): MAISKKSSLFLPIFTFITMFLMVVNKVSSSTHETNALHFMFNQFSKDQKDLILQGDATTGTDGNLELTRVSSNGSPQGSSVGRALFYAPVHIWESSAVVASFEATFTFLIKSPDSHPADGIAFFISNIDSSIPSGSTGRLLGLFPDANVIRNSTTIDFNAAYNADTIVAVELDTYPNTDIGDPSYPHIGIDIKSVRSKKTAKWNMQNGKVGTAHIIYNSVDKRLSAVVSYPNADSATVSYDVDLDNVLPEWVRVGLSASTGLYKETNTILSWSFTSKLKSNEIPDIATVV
procedureSummary: ConA small-molecule binders, primary screen, artefact control for SMM control protein annotation, biochemical, small-molecule microarray, Alexa647 label, 635 nm (AID 1127);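 further: z combines 667 nm emission intensity with signal-to-noise across three replicate slides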
details: ConA-A647 binding fluorescence, higher = more signal
# reported composite z-score; entries follow
readoutName: composite z-score

- compound: "CC(C)NC(=O)[C@@]1(Cc2ccccc2I)c2ccccc2C(=O)N(Cc2ccccc2)[C@H]1c1ccc(CO)cc1"
  reported: 0.968
- compound: "[N-]=[N+]=NCc1ccccc1[C@@H]1OC(c2ccc(OCCCO)cc2)=N[C@]1(Cc1ccccc1)C(=O)N1CCCCC1"
  reported: 1.14
- compound: "CCOC(=O)C1=CC[C@@H](c2ccccc2Cl)N(S(=O)(=O)c2ccc(C)cc2)C1"
  reported: 1.04
- compound: "CCOC(=O)C1=C[C@@H](CC)N(S(=O)(=O)c2ccc(C)cc2)[C@H]1c1ccccc1"
  reported: 1.1
- compound: "C=CC(=C)C1=CCO[C@@H]1[C@H]1CCCN1S(=O)(=O)c1ccccc1[N+](=O)[O-]"
  reported: 1.1
- compound: "C=CCC(OC(C)=O)[C@@H]1[C@@H](N(Cc2cccc3ccccc23)C(=O)c2cccc3ccccc23)c2cc(OCCCO)ccc2N1C(=O)c1ccc2ccccc2n1 (stereo partly drawn)"
  reported: -0.0505
- compound: "CC1=C2[C@@H](CCc3ccccc3)OB(O)C[C@@H]2n2c(=O)n(-c3ccccc3)c(=O)n2C1"
  reported: 1
- compound: "O=C1O[C@@H](c2ccccc2)[C@@H](c2ccccc2)N2[C@@H](c3ccc(OCCO)cc3)[C@]3(C(=O)Nc4ccc(C#CC5=CCCCC5)cc43)[C@@H](C(=O)O)[C@H]12"
  reported: 1.16
- compound: "Cc1ccc(S[C@]2(C(=O)O)CC(=O)N(C3Cc4ccccc4C3)[C@@H]2c2ccc(CO)cc2I)cc1"
  reported: 0.181
- compound: "CC(C)C(O)C1C=CC2C(=O)N(c3ccccc3)C(=O)C2N1Nc1ccc(C#N)cc1 (stereo not drawn)"
  reported: 1.19
- compound: "COCCOC(=O)N1C(=O)[C@@]2(c3cc(C#CCCO)ccc31)[C@H](c1ccccc1OCCO)N1[C@H](c3ccccc3)[C@H](c3ccccc3)OC(=O)[C@H]1[C@@H]2C(=O)N1CCN(c2ncccn2)CC1"
  reported: 1.15
- compound: "COC(=O)C1=CC(CCCO)=CC(C2CC2)N(Cc2sc3ccccc3c2Cl)C=C1C(=O)OC (stereo not drawn)"
  reported: 0.949
- compound: "CC1CC/C=C\\[C@H]2OC34C=CCN(Cc5ccccc5)C(=O)[C@H]3N(CCCCCO)C(=O)[C@@H]4C2C(=O)O1 (stereo partly drawn)"
  reported: -0.811
- compound: "COC(=O)[C@@]1(Cc2ccccc2)[C@H]2c3cc(C(=O)N4CCCC4)n(C)c3C[C@H]2CN1C(=O)c1ccccc1"
  reported: 1.07
- compound: "Cc1ccc([C@H]2C(C(=O)O)=C[C@@H](C)N2S(=O)(=O)c2ccc(C)cc2)cc1"
  reported: -0.72
- compound: "N#Cc1ccc(NN2C(C(O)c3ccc([N+](=O)[O-])cc3)C=CC3C(=O)N(c4ccccc4)C(=O)C32)cc1 (stereo not drawn)"
  reported: 0.647
- compound: "CCOc1cc(C(O)C2C=CC3C(=O)N(c4ccccc4)C(=O)C3N2Nc2ccc([N+](=O)[O-])cc2)ccc1O (stereo not drawn)"
  reported: 0.548
- compound: "COc1ccc([Si](C)(C)[C@@H]2[C@@H](CC(=O)N(CCO)Cc3ccccc3)O[C@]3(C(=O)N(C)c4ccccc43)[C@H]2C)cc1"
  reported: 1.12
- compound: "CN1C(=O)C2C(C1=O)C1C=C(CCCO)C2C(c2cccs2)N1C (stereo not drawn)"
  reported: -0.774
- compound: "COCCOC(=O)N1C(=O)[C@@]2(c3ccccc31)[C@H](C(=O)Nc1nc3ccccc3s1)[C@H]1C(=O)O[C@H](c3ccccc3)[C@H](c3ccccc3)N1[C@@H]2c1ccc(OCCO)cc1"
  reported: 1.16
- compound: "Cc1ccc(S[C@]2(C(=O)NC3CC3)CC(=O)N(Cc3ccccc3)[C@@H]2c2ccc(CO)cc2)cc1"
  reported: -0.788
- compound: "CC(C)C[C@@H]1NC(=O)[C@@H]2C[C@H](C(=O)NCCCCCC[N+](C)(C)C)[C@H](c3ccc(O)cc3)N2C1=O"
  reported: 0.989
- compound: "O=C1C[C@@](C(=O)NC2CC2)(c2ccc([N+](=O)[O-])cc2)[C@@H](c2ccc(CO)cc2)N1CC12CC3CC(CC(C3)C1)C2"
  reported: 1
